Tested on: A. baumannii clinical isolate LAC 16
Assay: Antibiotic susceptibility profile
Assay type: cell-based, Acinetobacter baumannii
Set-up: key: Resistance; Intermediate; Susceptible
endpoint_label: Antibiotic susceptibility

>  <molecule>
NCC[C@H](O)C(=O)N[C@@H]1C[C@H](N)[C@@H](O[C@H]2O[C@H](CN)[C@@H](O)[C@H](O)[C@H]2O)[C@H](O)[C@H]1O[C@H]1O[C@H](CO)[C@@H](O)[C@H](N)[C@H]1O [AMK, Amikacin]

>  <endpoint_label>
Antibiotic susceptibility

>  <result>
R

$$$$
>  <molecule>
NC[C@H]1O[C@H](O[C@H]2[C@H](O)[C@@H](O[C@H]3O[C@H](CO)[C@@H](O)[C@H](N)[C@H]3O)[C@H](N)C[C@@H]2N)[C@H](N)C[C@@H]1O [TOB, Tobramycin]

>  <endpoint_label>
Antibiotic susceptibility

>  <result>
R

$$$$
>  <molecule>
CO/N=C(\C(=O)N[C@@H]1C(=O)N2C(C(=O)O)=C(CSc3nc(=O)c(=O)[nH]n3C)CS[C@H]12)c1csc(N)n1 [CRO, Ceftriaxone]

>  <endpoint_label>
Antibiotic susceptibility

>  <result>
R

$$$$
>  <molecule>
CN(C)[C@@H]1C(O)=C(C(N)=O)C(=O)[C@@]2(O)C(O)=C3C(=O)c4c(O)cccc4[C@@](C)(O)[C@H]3C[C@@H]12 [TET, Tetracycline]

>  <endpoint_label>
Antibiotic susceptibility

>  <result>
I

$$$$
>  <molecule>
CO/N=C(\C(=O)N[C@@H]1C(=O)N2C(C(=O)O)=C(COC(C)=O)CS[C@H]12)c1csc(N)n1 [CTX, Cefotaxime]

>  <endpoint_label>
Antibiotic susceptibility

>  <result>
R

$$$$
